TEST_SYSTEM: T1, recombinant His6-tagged extracellular domain of human Clec4C (C-type lectin domain family 4, member C) (human, UniProt Q8WTT0 44-213)
T1 construct: Same antigen for immunisation, panning and ELISA; also called His-Clec4C(EC); pMET7-SIgK-His-Clec4C(EC)
T1 sequence: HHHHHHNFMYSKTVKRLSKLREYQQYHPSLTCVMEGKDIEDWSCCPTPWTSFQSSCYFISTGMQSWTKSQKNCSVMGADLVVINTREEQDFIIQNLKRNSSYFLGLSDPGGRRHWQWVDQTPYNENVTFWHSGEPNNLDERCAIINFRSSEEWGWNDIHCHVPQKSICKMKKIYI
ASSAY_NAME: ELISA, TG1 periplasmic extract on coated antigen
Hi there, I'd appreciate the recorded ELISA coated for every entry that follows.
// return a plain number; no unit text

Ask: Complete the entry with ELISA coated for 2CL71 (VHH, pMECS VHH-HA-His6; TG1 periplasmic extract) VHH: QVQLQESGGGLVQAGGSLRLSCAASGLTFGRYAMGWFRQVPGLEREFIARISRSGDNTGYADSVKGRFTVSRDSAKSTVYLQMNSLKTEDTAVYYCAAGTSWVPGHNANAYDYWGQGTQVTVSS
Result: 4

Ask: Complete the entry with ELISA coated for 2CL30 (VHH, pMECS VHH-HA-His6; TG1 periplasmic extract) VHH: QVQLQESGGGSVQAGGSLRLSCAASGRTFSDYAMGWFRQVPGLEREFVARISRSGDSTGYADSVKGRFTVSRDNAKNTVYLQMNSLKTEDTAVYYCAATTSWLPGHNANVYDYWGQGTQVTVSS
Result: 3.79

Ask: Complete the entry with ELISA coated for 2CL57 (VHH, pMECS VHH-HA-His6; TG1 periplasmic extract) VHH: QVQLQESGGGLVQAGGSLKLSCAASGRTFSSYAMGWFRQAPGKERDFVAVISWRNNTYYADSVKGRFTISRDNAKNTVHLQMNSLKSEDTAVYYCAAAGLGAVVAGMSDYDYWGQGTQVTVSS
Result: 0.922

Ask: Complete the entry with ELISA coated for 2CL59 (VHH, pMECS VHH-HA-His6; TG1 periplasmic extract) VHH: QVQLQESGGGLVQPGDSLTLSCADSGRTFSNYAMGWFHQAPGKEREFVAAISTSGGSTAYADSVKGRFTISRDNAKNTVYLQMNNLKPEDTAVYYCAARLSFSGSSYYQGPLQYPYWGQGTQVTVSS
Result: 3.76

Ask: Complete the entry with ELISA coated for 2CL73 (VHH, pMECS VHH-HA-His6; TG1 periplasmic extract) VHH: QVQLQESGGGLVQAGDSLRLSCAASGNTFSMYAMGWFRQAPGKEREFVAAISRSGGSTNYRDSVKGRFTISRDNDLNAGYLQMNNLKPEDTAVYYCALRLTFSTTDAYTGKLQYPYWGQGTQVTVSS
Result: 2.43

Ask: Complete the entry with ELISA coated for 2CL34 (VHH, pMECS VHH-HA-His6; TG1 periplasmic extract) VHH: QVQLQESGGGLVQAGGSLRLSCAASGRTFTNYAMGWFRQAPGKEREFVATISRSGSMPYYADSVKGRFTISRDNAKNMVYLQMNSLKPEDTAVYYCAANVLVTTTRLDQYDSWGQGTQVTVSS
Result: 2.8

Ask: Complete the entry with ELISA coated for 2CL40 (VHH, pMECS VHH-HA-His6; TG1 periplasmic extract) VHH: QVQLQESGGGLVQTGGSLRVSCAASGRSISNYNMGWFRQPPGKEREIVGSIRWDGDSTYYADSVKGRFTISRDNTKNTVYLQMNSLKSEDTADYYCAATVSSFDESKNPRWYPYWGQGTQVTVSS
Result: 3.11

Ask: Complete the entry with ELISA coated for 2CL15 (VHH, pMECS VHH-HA-His6; TG1 periplasmic extract) VHH: QVQLQESGGGLVQPGGSVRLSCAASVFTLNNFIMSWVRQAPGKGLERVSDINMVGITDYSDPVKGRFTISRDNKQNTVYLQGNTLKPEDTAVYFCAAGRPIGLYYPSPRIRDYNDWGQGTQVTVSS
Result: 3.9

Ask: Complete the entry with ELISA coated for 1CL32 (VHH, pMECS VHH-HA-His6; TG1 periplasmic extract) VHH: QVQLQESGGGLVQAGDSLRLSCAASGDTFSMYTMGWFRQAPGKEREFVAAISRSGGSTNYRDSVKGRFTISRDNDLNAGYLQMNSLKPEDTAVYYCALRLTFSTTTAYTGELQYPYWGQGTQVTVSS
Result: 3.22

Ask: Complete the entry with ELISA coated for 2CL81 (VHH, pMECS VHH-HA-His6; TG1 periplasmic extract) VHH: QVQLQESGGGLVQAGDSLKLSCAASGRTFSTYAMGWFRQAPGKERDVVAAIATNGGTTYYVDSVKGRFTISRDNAQNRVYLQMNSLKPEDTAIYYCAARLSFGSGYYTNKLNYAYWGQGTQVTVSS
Result: 3.69

Ask: Complete the entry with ELISA coated for 2CL89 (VHH, pMECS VHH-HA-His6; TG1 periplasmic extract) VHH: QVQLQESGGGTVQPGESLRLSCEVSTDTFSSLAMAWFRQATAKDREFVAAISWSGDSTVYGDSVKGRFTMTRDHPKKMVYLQMDNLKPEDTAVYYCAGDLDGRTWHGDDLEYDYWGQGTQVTVSS
Result: 1.31

Ask: Complete the entry with ELISA coated for 2CL46 (VHH, pMECS VHH-HA-His6; TG1 periplasmic extract) VHH: QVQLQESGGGLVQAGGSLRLSCAVSGRTFSSYAMGWFRQARGKEREFVAAVEWSSGSTFYTDSVKGRFAISRDIAKNTVYLQMNSLKPEDTAVYYCAGDHTGKLVFSKTSDYWGQGTQVTVSS
Result: 3.3

Ask: Complete the entry with ELISA coated for 2CL21 (VHH, pMECS VHH-HA-His6; TG1 periplasmic extract) VHH: QVQLQESGGGLVQAGGSLRLSCAASGRTFTGYAMGWFRQVPGLEREFVARISRSGNSTGYADSVKGRFTVSRDNAKSTMYLQMNSLKTEDTAVYYCAATTSWLPGHNANVYDYWGQGTQVTVSS
Result: 3.89

Ask: Complete the entry with ELISA coated for 2CL43 (VHH, pMECS VHH-HA-His6; TG1 periplasmic extract) VHH: QVQLQESGGGTVQPGESLRLSCEVSTDTFSSLAMAWFRQATGKDREFVAAISWSGASTVYGDSVKGRFTMTRDHPKKMVYLQMDNLKPEDTAVYYCAGDLDGRTWHGDDLEYDYWGQGTQVTVSS
Result: 2.64

Ask: Complete the entry with ELISA coated for 1CL47 (VHH, pMECS VHH-HA-His6; TG1 periplasmic extract) VHH: QVQLQESGGGLVQAGGSRRLSCAASGRTFINYAMGWFRQAPGKEREFVAAISTSGSNTYLADSLKARFTISRDNAKNTVYLQIRSLNPEDTAVYYCAARLSFDDSAYYTSTLRYAYWGQGTQVTVSS
Result: 4

Cited source: patent US20220119472A1
